tgt: T1, human MSLN-R2-his protein (human, UniProt Q13421 391-486)
T1 construct: also called human MSLN-R2 protein; hMSLN-R2-his; not shown: His tag
measurement-protocol: ELISA, coated antigen; antibody 0.1 nM

# binder, result-units, OD450
records = [
    ("S009-F3.7.3 (antibody, human IgG1, kappa, V domains shown, Human-murine chimeric antibody: murine VH/VL on human IgG1 heavy chain constant region and human kappa constant region) VH: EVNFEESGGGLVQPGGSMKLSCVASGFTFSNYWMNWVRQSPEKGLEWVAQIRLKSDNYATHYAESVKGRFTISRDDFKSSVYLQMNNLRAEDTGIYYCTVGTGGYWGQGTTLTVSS VL: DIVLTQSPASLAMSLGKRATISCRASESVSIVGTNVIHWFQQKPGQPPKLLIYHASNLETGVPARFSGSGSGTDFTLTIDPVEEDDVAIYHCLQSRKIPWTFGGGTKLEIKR", "OD450", 0.07),
    ("S009-F3.38.10 (antibody, human IgG1, kappa, V domains shown, Human-murine chimeric antibody, human IgG1/kappa constant regions) VH: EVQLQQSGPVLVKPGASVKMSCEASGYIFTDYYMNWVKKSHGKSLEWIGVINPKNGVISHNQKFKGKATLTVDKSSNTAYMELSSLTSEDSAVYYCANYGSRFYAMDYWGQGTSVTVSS VL: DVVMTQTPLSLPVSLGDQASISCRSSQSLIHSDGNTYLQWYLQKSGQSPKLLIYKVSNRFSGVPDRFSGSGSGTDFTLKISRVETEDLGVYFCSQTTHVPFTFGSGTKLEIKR", "OD450", 0.18),
]

The measured values listed here are drawn from patent US20250250357A1.
